Target: Human recombinant cathepsin K (Homo sapiens (Human))
Assay: In vitro cathepsin Ki inhibition measurements
Format: biochemical
Settings: human recombinant cathepsin K, pH 5.5, Z-Leu-Arg-AMC substrate; read-out: In vitro Ki (nM) vs Cath K
Listed compounds paired with reported Ki

>  <smiles-text>
CC(C)[C@@H]1CN(C(=O)[C@@H](NC(=O)c2ccc(N3CCN(C)CC3)cc2)C2CCCC2)[C@@H]2C(=O)CO[C@@H]21

>  <Ki / nM>
1.5

$$$$
>  <smiles-text>
CC[C@H]1CN(C(=O)[C@@H](NC(=O)c2ccc(N3CCN(C)CC3)cc2)C2CCCC2)[C@@H]2C(=O)CO[C@H]12

>  <Ki / nM>
0.4

$$$$
>  <smiles-text>
CC(C)C[C@H](NC(=O)c1ccc(N2CCN(C)CC2)cc1)C(=O)N1C[C@H](C(F)F)[C@H]2OCC(=O)[C@H]21

>  <Ki / nM>
0.8

$$$$
>  <smiles-text>
C[C@H]1CN(C(=O)[C@@H](NC(=O)c2ccc(N3CCN(C)CC3)cc2)C2CCCC2)[C@@H]2C(=O)CO[C@@H]21

>  <Ki / nM>
0.35

$$$$
>  <smiles-text>
CC(C)[C@H]1CN(C(=O)[C@@H](NC(=O)c2ccc(N3CCN(C)CC3)cc2)C(C)(C)C)[C@@H]2C(=O)CO[C@H]12

>  <Ki / nM>
0.8

$$$$
>  <smiles-text>
CC(C)C[C@H](NC(=O)c1ccc(N2CCN(C)CC2)cc1)C(=O)N1C[C@@H](C(F)F)[C@H]2OCC(=O)[C@H]21

>  <Ki / nM>
1.7

$$$$

---

Target: Human recombinant cathepsin K (Homo sapiens (Human), UniProt P43235)
Sequence (P43235 115-329): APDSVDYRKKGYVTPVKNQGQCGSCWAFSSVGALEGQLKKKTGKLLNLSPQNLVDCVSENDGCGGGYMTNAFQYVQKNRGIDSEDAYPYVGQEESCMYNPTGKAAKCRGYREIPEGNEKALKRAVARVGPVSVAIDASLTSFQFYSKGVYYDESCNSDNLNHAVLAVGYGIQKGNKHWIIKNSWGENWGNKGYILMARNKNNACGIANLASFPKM
Experiment: In vitro cathepsin Ki inhibition measurements
Assay type: biochemical
Conditions: human recombinant cathepsin K, pH 5.5, Z-Leu-Arg-AMC substrate; read-out: In vitro Ki (nM) vs Cath K
Entries and their measured Ki follow.
assay-metric: Ki (nM)

>  <smiles-text>
C[C@@H]1CN(C(=O)[C@@H](NC(=O)c2ccc(N3CCN(C)CC3)cc2)C2CCCC2)[C@@H]2C(=O)CO[C@H]12

>  <value-measured>
1

$$$$
>  <smiles-text>
CC(C)[C@@H]1CN(C(=O)[C@@H](NC(=O)c2ccc(N3CCN(C)CC3)cc2)C(C)(C)C)[C@@H]2C(=O)CO[C@@H]21

>  <value-measured>
3.2

$$$$
>  <smiles-text>
CC[C@@H]1CN(C(=O)[C@@H](NC(=O)c2ccc(N3CCN(C)CC3)cc2)C(C)(C)C)[C@@H]2C(=O)CO[C@H]12

>  <value-measured>
4.4

$$$$
>  <smiles-text>
CC(C)C[C@H](NC(=O)c1ccc(N2CCN(C)CC2)cc1)C(=O)N1C[C@@H](C)[C@H]2OCC(=O)[C@H]21

>  <value-measured>
2.5

$$$$
>  <smiles-text>
CC[C@H]1CN(C(=O)[C@@H](NC(=O)c2ccc(N3CCN(C)CC3)cc2)C(C)(C)C)[C@@H]2C(=O)CO[C@H]12

>  <value-measured>
0.8

$$$$
>  <smiles-text>
CC[C@@H]1CN(C(=O)[C@@H](NC(=O)c2ccc(N3CCN(C)CC3)cc2)C2CCCC2)[C@@H]2C(=O)CO[C@H]12

>  <value-measured>
1.2

$$$$

Reference for the values: patent US8501744B2
